Every entry's value here was drawn from patent US20100298376A1.

The entries below are paired with their reported % neuronal survival Mean ± SD.
- Tested on: cerebellar granule neurons
- stated_conditions: Table 1; 5 μM in LK medium, 24 hours; percent of HK control
The response must be a number in % with no trailing unit.

Field: example entries. Status: answers known.
COc1cc(/C=C2\C(=O)Nc3ccc(F)cc32)cc(OC)c1OC    51.9
O=C1Nc2ccc([N+](=O)[O-])cc2/C1=C\C=C\c1ccccc1    78.6
O=C1Nc2ccccc2/C1=C\c1cc(Br)cc(Br)c1    45.4
O=C1Nc2ccc([N+](=O)[O-])cc2/C1=C/c1ccccc1 [Compound 25, (Z)-3-Benzylidene-5-nitroindolin-2-one]    78.4

q: Quick one: give measured % neuronal survival Mean ± SD for O=C1Nc2ccc(Br)cc2/C1=C/c1cc(Br)cc(Br)c1
a: 45.4

q: Quick one: give measured % neuronal survival Mean ± SD for COc1ccc(/C=C2/C(=O)Nc3ccc(Br)cc32)cc1
a: 59.5

q: Quick one: give measured % neuronal survival Mean ± SD for O=C1Nc2ccc(Cl)cc2/C1=C\c1ccccc1 [Compound 12, (E)-3-Benzylidene-5-chloroindolin-2-one]
a: 63.8

q: Quick one: give measured % neuronal survival Mean ± SD for CC(=O)Oc1c(Br)cc(/C=C2/C(=O)Nc3ccc(Cl)cc32)cc1Br
a: 84.6

q: Quick one: give measured % neuronal survival Mean ± SD for O=C1Nc2ccc([N+](=O)[O-])cc2/C1=C/c1cc(Br)cc(Br)c1
a: 78.7
